species: Rattus norvegicus; assay: DrugMatrix - Regimen: Daily Repeat; type: toxicity, organism-based, Sprague-Dawley; design: regimen Daily Repeat, gender Male, age 6-8 weeks; conditions: in vivo, po, 0 mg/kg, 72 h, tissue Plasma, route oral GAVAGE, dose level Control, time 3 day, vehicle .5 % CMC
measured metric: CARBON DIOXIDE (mmol/L)

- molecule: "NC(=O)NC(=O)Cc1ccccc1 [PHENACEMIDE]"
  result value: 30.83
- molecule: "NC(=O)CN1CCCC1=O"
  result value: 29.5
- molecule: "CC(C)(C#N)c1cc(Cn2cncn2)cc(C(C)(C)C#N)c1"
  result value: 29.17
- molecule: "Cc1cc2c(s1)Nc1ccccc1N=C2N1CCN(C)CC1"
  result value: 29.17
